Data provenance is PubChem BioAssay AID624268.

test system: methionyl-tRNA synthetase (Trypanosoma brucei brucei); test: T. brucei MetRS inhibitors, primary screen, biochemical, luminescence (AID 624268);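 note: 0% = DMSO wells median and 100% = median of wells with control inhibitor compound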; details: purified T. brucei MetRS, ATP depletion, Kinase-Glo luminescence; at 11.9 µM; hits give high values
The campaign covered roughly 360,000 compounds. About 1,500 (0.42%) were called active. The list comes from a sample in which actives are over-represented; it also holds close analogues and randomly drawn compounds.
Reported inhibition by item:

Worked cases, answers included:
C=CCN1CCN(C(=O)CCCc2ccccc2)CC1; 0.23% (inactive)
CCNS(=O)(=O)c1ccc(NC(=O)c2cncc(Br)c2)cc1; -0.64% (inactive)

# input for lookup
Please give measured inhibition of the following entry: `CCOC(=O)c1cccc(NC(=O)CCc2c(C)nc3ncnn3c2C)c1`
-0.04% (inactive)
